# target of assay: COX-1 (Homo sapiens)
# assay remarks: Assay of COX-1 activity from U937 cell microsomes
# Format: biochemical
# Design: Assay of COX-1 Activity from U937 cell microsomes; endogenous in cells; host or cells: U937 cells, 100,000×g microsomal pellet

molecule	IC50
CS(=O)(=O)c1ccc(-c2cc(C(F)(F)F)cnc2N2CCCC(O)C2)cc1 (centres unmarked)	> 10 µM
CS(=O)(=O)c1ccc(-c2cc(C(F)(F)F)cnc2N2CCCC2)cc1	> 10 µM

###

# target of assay: COX-2 (Homo sapiens)
# Construct: incubation of human whole blood with LPS, which induces COX-2; endogenous in cells; host or cells: heparinized fresh whole blood of human volunteers, incubated with LPS for 24 h
# assay remarks: Whole cell assay for COX-2 using CHO transfected cell line CHO[hCOX-2], inhibition of PGE2 synthesis
# Assay type: cell-based
Listing: IC50 of selected compounds
assay endpoint: IC50

compound	val
CS(=O)(=O)c1ccc(-c2cc(C(F)(F)F)cnc2N2CCC[C@H](CO)C2)cc1 (single isomer, unassigned) [Example 14]	30 nM
CS(=O)(=O)c1ccc(-c2cc(C(F)(F)F)cnc2N2CCCC2)cc1 [Example 1]	20 nM
CS(=O)(=O)c1ccc(-c2cc(C(F)(F)F)cnc2N2CCC[C@@H](CO)C2)cc1 (single isomer, unassigned) [Example 15]	30 nM

###

# target of assay: COX-1 (Homo sapiens, UniProt P23219)
# Sequence (P23219 24-599): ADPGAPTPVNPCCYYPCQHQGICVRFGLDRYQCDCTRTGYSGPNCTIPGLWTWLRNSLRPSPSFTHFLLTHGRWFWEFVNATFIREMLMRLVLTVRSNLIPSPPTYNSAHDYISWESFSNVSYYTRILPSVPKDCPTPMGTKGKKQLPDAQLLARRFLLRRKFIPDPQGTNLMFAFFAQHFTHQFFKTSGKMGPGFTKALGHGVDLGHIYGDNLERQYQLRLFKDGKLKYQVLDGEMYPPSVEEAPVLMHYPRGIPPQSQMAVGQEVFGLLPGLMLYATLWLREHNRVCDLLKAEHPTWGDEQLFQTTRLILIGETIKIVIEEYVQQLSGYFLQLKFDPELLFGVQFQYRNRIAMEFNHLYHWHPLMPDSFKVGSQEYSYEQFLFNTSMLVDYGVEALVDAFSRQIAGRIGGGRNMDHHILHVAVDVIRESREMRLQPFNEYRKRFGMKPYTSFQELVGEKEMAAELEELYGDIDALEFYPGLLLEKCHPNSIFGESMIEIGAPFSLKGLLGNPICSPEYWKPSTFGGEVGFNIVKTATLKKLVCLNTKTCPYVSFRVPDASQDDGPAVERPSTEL
# assay remarks: Human whole blood assay, COX-1 (clotting-induced TxB2 production)
# Format: cell-based
# Set-up: platelets in whole blood contain a large amount of the COX-1 enzyme; endogenous in cells; host or cells: fresh human whole blood without anticoagulant (platelets), clotted 1 h at 37° C
# assay conditions: clotting-induced TxB2, 1 h, read-out: COX-1 (IC50 mM) HWB

substance smiles	IC50
CS(=O)(=O)c1ccc(-c2cc(C(F)(F)F)cnc2N2CCCCC2)cc1	> 0.1 mM

###

# target of assay: COX-2 (Homo sapiens)
# Construct: incubation of human whole blood with LPS, which induces COX-2; endogenous in cells; host or cells: heparinized fresh whole blood of human volunteers, incubated with LPS for 24 h
# Sequence (P35354 18-604): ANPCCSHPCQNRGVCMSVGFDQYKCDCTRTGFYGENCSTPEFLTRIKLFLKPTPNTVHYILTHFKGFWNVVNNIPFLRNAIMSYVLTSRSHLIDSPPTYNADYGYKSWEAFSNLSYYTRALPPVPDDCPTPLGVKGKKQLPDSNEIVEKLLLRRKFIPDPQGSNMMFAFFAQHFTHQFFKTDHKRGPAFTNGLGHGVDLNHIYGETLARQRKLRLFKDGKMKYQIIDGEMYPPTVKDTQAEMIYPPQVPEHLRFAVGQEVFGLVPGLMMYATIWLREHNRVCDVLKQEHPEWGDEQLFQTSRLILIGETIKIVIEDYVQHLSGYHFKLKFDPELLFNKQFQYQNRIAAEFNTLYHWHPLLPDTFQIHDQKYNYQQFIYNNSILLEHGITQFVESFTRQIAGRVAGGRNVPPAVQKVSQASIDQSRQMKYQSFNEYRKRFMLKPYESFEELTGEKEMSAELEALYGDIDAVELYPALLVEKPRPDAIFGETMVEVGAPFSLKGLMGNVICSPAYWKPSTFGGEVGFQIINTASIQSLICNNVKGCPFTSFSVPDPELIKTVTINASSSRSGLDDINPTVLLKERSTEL
# assay remarks: Whole cell assay for COX-2 using CHO transfected cell line CHO[hCOX-2], inhibition of PGE2 synthesis
# Assay type: cell-based
# assay conditions: CHO[hCOX-2] cells, 10 μM AA, PGE2; read-out: COX-2 (IC50 mM) CHO
assay endpoint: IC50

compound	assay endpoint	val
CS(=O)(=O)c1ccc(-c2cc(C(F)(F)F)cnc2N2CCCC(O)C2)cc1 (stereo not shown) [Example 23]	IC50	0.03 µM
CS(=O)(=O)c1ccc(-c2cc(C(F)(F)F)cnc2N2CCSCC2)cc1 [Example 28]	IC50	0.03 µM
CS(=O)(=O)c1ccc(-c2cc(C(F)(F)F)cnc2N2CCCCCC2)cc1 [Example 6]	IC50	0.004 µM
CS(=O)(=O)c1ccc(-c2cc(C(F)(F)F)cnc2N2CC=CCC2)cc1 [Example 5]	IC50	0.002 µM
